System: KRAS PDC tumor spheroids (HUVEC+MSC), viability
Test: Anticancer human tumor 254851-301-R-J1-PDC patient-derived colon carcinoma cell line growth inhibition [KRAS2]
Conditions: second compound 0.1 µM; first compound 1 µM; stronger effect = lower value
Would you kindly list viability, T/C for each of these compounds?
Please reply with the bare figure in % and do not write the unit itself.

Problem: Quick check: viability, T/C on KRAS PDC tumor spheroids (HUVEC+MSC), viability, item CC(C)NCC(C(=O)N1CCN(c2ncnc3c2C(C)CC3O)CC1)c1ccc(Cl)cc1 (configuration not stated) + C=CC(=O)N1CCN(c2nc(=O)n(-c3c(C)ccnc3C(C)C)c3nc(-c4c(O)cccc4F)c(F)cc23)C(C)C1 ?
Result: 98.6

Problem: Quick check: viability, T/C on KRAS PDC tumor spheroids (HUVEC+MSC), viability, item O=C(c1cc(Cc2n[nH]c(=O)c3ccccc23)ccc1F)N1CCN(C(=O)C2CC2)CC1 + C=CC(=O)N1CCN(c2nc(OCC3CCCN3C)nc3c2CCN(c2cccc4cccc(C)c24)C3)CC1CC#N ?
Result: 104

Problem: Quick check: viability, T/C on KRAS PDC tumor spheroids (HUVEC+MSC), viability, item COc1cc(Nc2ncc3c(n2)-c2ccc(Cl)cc2C(c2c(F)cccc2OC)=NC3)ccc1C(=O)O + C=CC(=O)N1CCN(c2nc(=O)n(-c3c(C)ccnc3C(C)C)c3nc(-c4c(O)cccc4F)c(F)cc23)C(C)C1 ?
Result: 28.6

Problem: Quick check: viability, T/C on KRAS PDC tumor spheroids (HUVEC+MSC), viability, item CC(=O)OC12COC1CC(O)C1(C)C(=O)C(O)C3=C(C)C(OC(=O)C(O)C(NC(=O)OC(C)(C)C)c4ccccc4)CC(O)(C(OC(=O)c4ccccc4)C21)C3(C)C (configuration not stated) + C=CC(=O)N1CCN(c2nc(=O)n(-c3c(C)ccnc3C(C)C)c3nc(-c4c(O)cccc4F)c(F)cc23)C(C)C1 ?
Result: 30.5

Problem: Quick check: viability, T/C on KRAS PDC tumor spheroids (HUVEC+MSC), viability, item CC(=O)OC12COC1CC(O)C1(C)C(=O)C(O)C3=C(C)C(OC(=O)C(O)C(NC(=O)OC(C)(C)C)c4ccccc4)CC(O)(C(OC(=O)c4ccccc4)C21)C3(C)C (configuration not stated) + COc1cc2nc(C)nc(NC(C)c3cc(N)cc(C(F)(F)F)c3)c2cc1OC1CCOC1 ?
Result: 27

Problem: Quick check: viability, T/C on KRAS PDC tumor spheroids (HUVEC+MSC), viability, item COc1cc(Nc2ncc3c(n2)-c2ccc(Cl)cc2C(c2c(F)cccc2OC)=NC3)ccc1C(=O)O + CC1OCC2(CCN(c3cnc(Sc4ccnc(N)c4Cl)c(N)n3)CC2)C1N ?
Result: 24.9

Problem: Quick check: viability, T/C on KRAS PDC tumor spheroids (HUVEC+MSC), viability, item CC1COCCN1c1cc(-c2ccnn2C)c2ccnc(-c3ccn[nH]3)c2n1 (configuration not stated) + C=CC(=O)N1CCN(c2nc(=O)n(-c3c(C)ccnc3C(C)C)c3nc(-c4c(O)cccc4F)c(F)cc23)C(C)C1 ?
Result: 35.4

====

Would you kindly list pIC50 for each of these compounds?
Tested on: KRAS PDC tumor spheroids (HUVEC+MSC), viability
Assay: Anticancer human tumor 254851-301-R-J1-PDC cell line growth inhibition [KRAS2];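 further: spheroids exposed to compounds for seven days before readout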
Conditions: curve of first compound; second compound 0.0316 µM
Text: Multicellular complex tumor spheroid response to RAS pathway inhibitors in combination with a targeted agents in patient-derived cell lines with oncogenic KRAS variants from multiple cancer types A high-throughput screen of multi-cell type tumor spheroids was designed to identify active combinations of targeted small molecules and KRAS pathway inhibitors. […] Compounds. […] If the clinical Cmax for an agent had not been determined, the highest concentration tested was 10 microM. […]
pIC50: −log10 of the molar value.

Problem: May I ask what pIC50 has been recorded for Cn1ncnc1[C@H]1c2n[nH]c(=O)c3cc(F)cc(c23)N[C@@H]1c1ccc(F)cc1 + C=CC(=O)N1CCN(c2nc(OCC3CCCN3C)nc3c2CCN(c2cccc4cccc(C)c24)C3)CC1CC#N ?
Result: < 7.00

Problem: May I ask what pIC50 has been recorded for CC1OCC2(CCN(c3cnc(Sc4ccnc(N)c4Cl)c(N)n3)CC2)C1N (stereo not drawn) + C=CC(=O)N1CCN(c2nc(OCC3CCCN3C)nc3c2CCN(c2cccc4cccc(C)c24)C3)CC1CC#N ?
Result: < 5.00

Problem: May I ask what pIC50 has been recorded for CC1(C)CCC(CN2CCN(c3ccc(C(=O)NS(=O)(=O)c4ccc(NCC5CCOCC5)c([N+](=O)[O-])c4)c(Oc4cnc5[nH]ccc5c4)c3)CC2)=C(c2ccc(Cl)cc2)C1 + C=CC(=O)N1CCN(c2nc(OCC3CCCN3C)nc3c2CCN(c2cccc4cccc(C)c24)C3)CC1CC#N ?
Result: < 5.00

Problem: May I ask what pIC50 has been recorded for CN(C)C/C=C/C(=O)Nc1cc2c(Nc3ccc(F)c(Cl)c3)ncnc2cc1O[C@H]1CCOC1 + C=CC(=O)N1CCN(c2nc(OCC3CCCN3C)nc3c2CCN(c2cccc4cccc(C)c24)C3)CC1CC#N ?
Result: < 7.00

Problem: May I ask what pIC50 has been recorded for Cn1nccc1Nc1nccc(-c2cc3c(s2)C(C)(C)N(CCN2CCOCC2)C3=O)n1 + C=CC(=O)N1CCN(c2nc(OCC3CCCN3C)nc3c2CCN(c2cccc4cccc(C)c24)C3)CC1CC#N ?
Result: 5.63

Problem: May I ask what pIC50 has been recorded for CC(C)NCC(C(=O)N1CCN(c2ncnc3c2C(C)CC3O)CC1)c1ccc(Cl)cc1 (stereo not drawn) + C=CC(=O)N1CCN(c2nc(OCC3CCCN3C)nc3c2CCN(c2cccc4cccc(C)c24)C3)CC1CC#N ?
Result: < 5.00

Problem: May I ask what pIC50 has been recorded for CCN1CCN(Cc2ccc(Nc3ncc(F)c(-c4cc(F)c5nc(C)n(C(C)C)c5c4)n3)nc2)CC1 + C=CC(=O)N1CCN(c2nc(OCC3CCCN3C)nc3c2CCN(c2cccc4cccc(C)c24)C3)CC1CC#N ?
Result: 6.22

Problem: May I ask what pIC50 has been recorded for COc1cc(Nc2ncc3c(n2)-c2ccc(Cl)cc2C(c2c(F)cccc2OC)=NC3)ccc1C(=O)O + C=CC(=O)N1CCN(c2nc(OCC3CCCN3C)nc3c2CCN(c2cccc4cccc(C)c24)C3)CC1CC#N ?
Result: 7.05
